# target system: REV-ERBβ (Homo sapiens, UniProt Q14995)
# Construct: 6×Histag-REV-ERBα LBD (human; residues 381-579)
# Sequence (Q14995 381-579): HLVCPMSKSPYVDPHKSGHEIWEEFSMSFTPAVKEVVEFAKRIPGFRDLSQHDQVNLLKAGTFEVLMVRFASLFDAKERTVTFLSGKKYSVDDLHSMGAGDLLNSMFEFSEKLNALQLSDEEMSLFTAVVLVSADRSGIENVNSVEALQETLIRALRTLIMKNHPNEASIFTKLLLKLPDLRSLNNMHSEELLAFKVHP
# procedure details: TR-FRET corepressor interaction assay (REV-ERBβ, FITC-SMRT peptide)
# test settings: Table 2, read-out: REVERBβ agonism (EC50 class, FRET assay)
pEC50: −log10 of the molar value.
Reported pEC50 values for the following compounds.
property measured: pEC50

compound | target system | result
CC(C)C(=O)n1cc(C(C)NS(=O)(=O)N(C)C)c2ccc(-c3ccncc3)cc21 (stereo not drawn) [Example 180] | REV-ERBβ (Homo sapiens, UniProt Q14995) | < 5.52
CC(C)Cn1cc(CCNS(=O)(=O)N(C)C)c2ccc(-c3cn[nH]c3)cc21 [Compound 35] | REV-ERBβ (Homo sapiens, UniProt Q14995) | < 5.52
CC(C)Cn1cc(CCNS(=O)(=O)C(C)C)c2cc(F)c(-c3ccccc3Cl)cc21 [Compound 262] | REV-ERBβ (Homo sapiens, UniProt Q14995) | < 5.52
CC(C)Cc1cn(CCNS(=O)(=O)C2CC2)c2ncc(-c3ccncc3)cc12 [Example 365] | REV-ERBβ (Homo sapiens, UniProt Q14995) | < 5.52
CC(C)Cn1cc(CCNS(=O)(=O)N(C)C)c2ccc(-c3ccnc(Cl)c3)cc21 [Compound 20] | REV-ERBβ (Homo sapiens, UniProt Q14995) | < 5.52
CC(C)Cn1cc([C@H](NS(=O)(=O)C2CC2)C(F)(F)F)c2cc(F)c(-c3ccccc3C(F)(F)F)cc21 [Example 313] | REV-ERBβ (Homo sapiens, UniProt Q14995) | < 5.52
CC(C)(C)Cn1cc([C@H](NS(=O)(=O)C2CC2)C(F)(F)F)c2cc(F)c(Br)cc21 [Example 342] | REV-ERBβ (Homo sapiens, UniProt Q14995) | < 5.52
CC(C)Cn1cc(CCNS(=O)(=O)C2CCCC2)c2ccc(-c3ccncc3)cc21 [Compound 11] | REV-ERBβ (Homo sapiens, UniProt Q14995) | < 5.52
CC(C)(C)Cn1cc([C@H](NS(=O)(=O)C2CC2)C(F)(F)F)c2ccc(-c3ccccc3C(F)(F)F)cc21 [Example 322] | REV-ERBβ (Homo sapiens, UniProt Q14995) | 5.52 to 6.30
CC(C)Cn1cc(CCNS(=O)(=O)N(C)C)c2ccc(-c3cccnc3)cc21 [Compound 28] | REV-ERBβ (Homo sapiens, UniProt Q14995) | < 5.52
CC(C)(C)Cn1cc(CNS(=O)(=O)C2CC2)c2cc(F)c(-c3ccccc3C(F)(F)F)cc21 [Compound 278] | REV-ERBβ (Homo sapiens, UniProt Q14995) | 5.52 to 6.30
Cc1cc2c(CCNS(=O)(=O)N(C)C)cn(CC(C)C)c2cc1C [Example 120] | REV-ERBβ (Homo sapiens, UniProt Q14995) | < 5.52
CCc1ccc2c(CCNS(=O)(=O)N(C)C)cn(CC(C)C)c2c1 [Compound 100] | REV-ERBβ (Homo sapiens, UniProt Q14995) | < 5.52
CC(C)Cn1cc(CCNS(=O)(=O)C2CC2)c2ccc(-c3ccncc3)cc21 [Compound 13] | REV-ERBβ (Homo sapiens, UniProt Q14995) | < 5.52
CC(C)Cn1cc(CCNS(=O)(=O)N(C)C)c2ccc(-c3ccnn3C)cc21 [Compound 34] | REV-ERBβ (Homo sapiens, UniProt Q14995) | < 5.52
Cc1noc(C)c1S(=O)(=O)NCCc1cn(CC(C)C)c2cc(-c3ccncc3)ccc12 [Compound 14] | REV-ERBβ (Homo sapiens, UniProt Q14995) | < 5.52
CC(C)CCn1cc(CCNS(=O)(=O)N(C)C)c2ccc(-c3ccncc3)cc21 [Compound 231] | REV-ERBβ (Homo sapiens, UniProt Q14995) | 5.52 to 6.30
CCCc1ccc2c(CCNS(=O)(=O)N(C)C)cn(CC(C)C)c2c1 [Compound 98] | REV-ERBβ (Homo sapiens, UniProt Q14995) | < 5.52
CC(C)Cn1cc(CCNS(=O)(=O)N(C)C)c2cccc(Br)c21 [Example 137] | REV-ERBβ (Homo sapiens, UniProt Q14995) | < 5.52
CC(C)Cn1cc(CNS(=O)(=O)C(C)C)c2cc(F)c(-c3ccncc3)cc21 [Compound 265] | REV-ERBβ (Homo sapiens, UniProt Q14995) | < 5.52
CC(C)Cn1cc(CCNS(=O)(=O)N(C)C)c2ccc(-c3ccnc(N)c3)cc21 [Compound 21] | REV-ERBβ (Homo sapiens, UniProt Q14995) | < 5.52
Cc1c(-c2ccncc2)ccc2c(CCNS(=O)(=O)N(C)C)cn(CC(C)C)c12 [Example 200] | REV-ERBβ (Homo sapiens, UniProt Q14995) | < 5.52
CC(C)(C)Cc1cn(CCNS(=O)(=O)C2CC2)c2ccc(-c3ccccc3C(F)(F)F)cc12 [Example 212] | REV-ERBβ (Homo sapiens, UniProt Q14995) | 5.52 to 6.30
CC(C)Cn1cc(CCNS(=O)(=O)N(C)C)c2ccc(-c3cccc4cnccc34)cc21 [Compound 38] | REV-ERBβ (Homo sapiens, UniProt Q14995) | < 5.52
O=S(=O)(NCc1cn(CC2(C(F)(F)F)CC2)c2cc(-c3ccncc3Cl)c(F)cc12)C1CC1 [Compound 286] | REV-ERBβ (Homo sapiens, UniProt Q14995) | < 5.52
CC(C)(C)Cc1cn(CCNS(=O)(=O)C2CC2)c2ccc(-c3ccc(C(F)(F)F)cc3C(F)(F)F)cc12 [Example 299] | REV-ERBβ (Homo sapiens, UniProt Q14995) | 5.52 to 6.30
COc1ccccc1-c1ccc2c(CCNS(=O)(=O)N(C)C)cn(CC(C)C)c2c1 [Example 58] | REV-ERBβ (Homo sapiens, UniProt Q14995) | < 5.52
CC(C)Cn1cc([C@H](NS(=O)(=O)N(C)C)C(F)(F)F)c2cc(F)c(C3CC3)cc21 [Example 329] | REV-ERBβ (Homo sapiens, UniProt Q14995) | < 5.52
CC(C)Cn1cc(CCNS(=O)(=O)N(C)C)c2ccc(-c3ccccc3)cc21 [Compound 30] | REV-ERBβ (Homo sapiens, UniProt Q14995) | 5.52 to 6.30
CC(C)Cn1cc(CCNS(=O)(=O)N(C)C)c2ccc(-c3ccnc4ccccc34)cc21 [Compound 37] | REV-ERBβ (Homo sapiens, UniProt Q14995) | 5.52 to 6.30
Cc1ccc2c([C@H](NS(=O)(=O)C3CC3)C(F)(F)F)cn(CC(C)C)c2c1 [Example 309] | REV-ERBβ (Homo sapiens, UniProt Q14995) | > 6.30
CC(C)Cn1cc(CCNS(=O)(=O)c2cccnc2)c2ccc(-c3ccncc3)cc21 [Compound 15] | REV-ERBβ (Homo sapiens, UniProt Q14995) | < 5.52
CC(C)C(=O)n1cc(C(C)NS(=O)(=O)N(C)C)c2ccc(-c3ccccc3C(F)(F)F)cc21 (stereo not drawn) [Example 195] | REV-ERBβ (Homo sapiens, UniProt Q14995) | 5.52 to 6.30

====

# target system: REV-ERBα LBD (human; residues 281-614 Δ324-422) (Homo sapiens, UniProt P20393, DEL324-422)
# Construct: 6×Histag-REV-ERBα LBD (human; residues 281-614 Δ324-422); made in house; host or cells: Escherichia coli
# Sequence (P20393 with tags, fused parts or gaps DEL324-422): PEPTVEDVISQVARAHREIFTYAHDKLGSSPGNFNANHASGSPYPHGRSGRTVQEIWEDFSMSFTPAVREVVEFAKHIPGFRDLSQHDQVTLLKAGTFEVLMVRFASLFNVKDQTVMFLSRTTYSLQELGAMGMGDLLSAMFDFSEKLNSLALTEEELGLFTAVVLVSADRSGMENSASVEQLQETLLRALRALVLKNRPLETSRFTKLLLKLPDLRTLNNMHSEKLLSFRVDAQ
# Sequence (Q9Y618 2335-2356 partner limits assumed): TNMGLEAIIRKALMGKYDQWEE
# procedure details: TR-FRET corepressor interaction assay (REV-ERBα LBD, FITC-SMRT peptide)
# Type: biochemical
# test settings: FITC-SMRT peptide, read-out: REVERBα agonism (EC50 class, FRET assay)
pEC50: −log10 of the molar value.

structure string | target system | pEC50
CCS(=O)(=O)NCCn1cc(CC(C)(C)C)c2cc(-c3ccc(C(F)(F)F)cc3C(F)(F)F)ccc21 | REV-ERBα LBD (human; residues 281-614 Δ324-422) (Homo sapiens, UniProt P20393, DEL324-422) | > 6.30
CC(C)(C)Cn1cc([C@H](NS(=O)(=O)C2CCC2)C(F)F)c2ccc(-c3c(C#N)cccc3C(F)(F)F)cc21 | REV-ERBα LBD (human; residues 281-614 Δ324-422) (Homo sapiens, UniProt P20393, DEL324-422) | > 6.30
CC(C)(C)Cn1cc([C@H](NS(=O)(=O)C2CCC2)C(F)(F)F)c2cc(F)c(-c3c(F)cccc3C(F)(F)F)cc21 | REV-ERBα LBD (human; residues 281-614 Δ324-422) (Homo sapiens, UniProt P20393, DEL324-422) | 5.52 to 6.30
CC(C)(C)Cn1cc([C@H](NS(=O)(=O)C2CCC2)C(F)(F)F)c2cc(F)c(-c3cccnc3C(F)(F)F)cc21 | REV-ERBα LBD (human; residues 281-614 Δ324-422) (Homo sapiens, UniProt P20393, DEL324-422) | > 6.30
CC(C)(C)Cn1cc([C@H](NS(=O)(=O)C2CCC2)C(F)(F)F)c2cc(F)c(-c3ncccc3C(F)(F)F)cc21 | REV-ERBα LBD (human; residues 281-614 Δ324-422) (Homo sapiens, UniProt P20393, DEL324-422) | > 6.30
CCOC(=O)[C@@H](NS(=O)(=O)C1CC1)c1cn(CC(C)(C)C)c2cc(-c3ccccc3C(F)(F)F)ccc12 | REV-ERBα LBD (human; residues 281-614 Δ324-422) (Homo sapiens, UniProt P20393, DEL324-422) | < 5.52
CCCn1cc([C@H](NS(=O)(=O)C2CCC2)C(F)(F)F)c2ccc(-c3ccccc3C(F)(F)F)cc21 | REV-ERBα LBD (human; residues 281-614 Δ324-422) (Homo sapiens, UniProt P20393, DEL324-422) | > 6.30

From: patent US20230339886A1
